These measurements were taken from the supplement of paper PMC11061612.

Item-by-item account of combination Emax
# System: CESS (Acute Myeloid Leukemia)
# Protocol summary: combination Emax (second highest fraction inhibited in the dose matrix, 72 h); higher = more inhibition; extreme values may be limits of the assay
Quantity: combination Emax

- COc1nnc2ccc(N3CCC(c4ccc(OCCN5CCN(C)C(=O)[C@H]5C)cc4)CC3)nn12 [AZD5153] + CC1(C)CCC(CN2CCN(c3ccc(C(=O)NS(=O)(=O)c4ccc(NCC5CCOCC5)c([N+](=O)[O-])c4)c(Oc4cnc5[nH]ccc5c4)c3)CC2)=C(c2ccc(Cl)cc2)C1 [Venetoclax] (first compound max 1 µM, 7x7, partner max 1 µM): 0.638
- CC1(C)CCC(CN2CCN(c3ccc(C(=O)NS(=O)(=O)c4ccc(NCC5CCOCC5)c([N+](=O)[O-])c4)c(Oc4cnc5[nH]ccc5c4)c3)CC2)=C(c2ccc(Cl)cc2)C1 [Venetoclax] + CN(C)CCCOc1ccc(-c2ccc3ncc4c(c3c2)n(C2CCOCC2)c(=O)n4C)cn1 [AZD0156] (first compound max 1 µM, 7x7, partner max 1 µM): 0.142
- NC1(C(=O)N[C@@H](CCO)c2ccc(Cl)cc2)CCN(c2ncnc3[nH]ccc23)CC1 [Capivasertib] + CC(=O)c1c(C)c2cnc(Nc3ccc(N4CCNCC4)cn3)nc2n(C2CCCC2)c1=O [Palbociclib] (first compound max 10 µM, 7x7, partner max 10 µM): 0.708

----------
# Test system: HT55 (Colorectal Carcinoma)
# Protocol summary: combination Emax (second highest fraction inhibited in the dose matrix, 72 h); higher = more inhibition; extreme values may be limits of the assay
Quantity: combination Emax

- Cn1cnc2c(F)c(Nc3ccc(Br)cc3Cl)c(C(=O)NOCCO)cc21 [Selumetinib] + CCN(CCO)CCCOc1ccc2c(Nc3cc(CC(=O)Nc4cccc(F)c4)[nH]n3)ncnc2c1 [AZD2811] (first compound max 10 µM, 7x7, partner max 1 µM): 0.741
- CC(=O)Nc1cccc(-n2c(=O)n(C3CC3)c(=O)c3c(Nc4ccc(I)cc4F)n(C)c(=O)c(C)c32)c1 [Trametinib] + Cc1nc(-c2cn3c(n2)-c2ccc(-c4cnn(C(C)(C)C(N)=O)c4)cc2OCC3)n(C(C)C)n1 [Taselisib] (first compound max 1 µM, 7x7, partner max 10 µM): 0.859
- CCN(CCO)CCCOc1ccc2c(Nc3cc(CC(=O)Nc4cccc(F)c4)[nH]n3)ncnc2c1 [AZD2811] + C[C@@H]1COCCN1C2=NC(=NC(=C2)C3(CC3)[S@](=N)(=O)C)C4=C5C=CNC5=NC=C4 [AZD6738] (first compound max 1 µM, 7x7, partner max 10 µM): 0.515
- C=CCn1c(=O)c2cnc(Nc3ccc(N4CCN(C)CC4)cc3)nc2n1-c1cccc(C(C)(C)O)n1 [AZD1775] + C1CN(CCC1(C(=O)N[C@@H](CCO)C2=CC=C(C=C2)Cl)N)C3=NC=NC4=C3C=CN4 [Capivasertib] (first compound max 3 µM, partner max 3 µM): 0.831

----------
Item-by-item account of Bliss excess
# System: GA-10 (Burkitt's Lymphoma);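 also: after 72 h of two-drug dosing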
# Protocol summary: Bliss excess, mean over the matrix (fraction); higher = more synergy
Quantity: Bliss excess

• CCc1c2c(nc3ccc(O)cc13)-c1cc3c(c(=O)n1C2)COC(=O)[C@]3(O)CC [SN-38] + CN(C)CCCOc1ccc(-c2ccc3ncc4c(c3c2)n(C2CCOCC2)c(=O)n4C)cn1 [AZD0156] (first compound max 0.3 µM, 7x7, partner max 1 µM) = 0.0494
• Cc1c2c(nn1C)CSCc1cc(n(C)n1)CSc1cc(c3ccccc3c1)OCCCc1c(C(=O)O)n(C)c3c-2c(Cl)ccc13 [AZD5991] + CN(C)CCCOc1ccc(-c2ccc3ncc4c(c3c2)n(C2CCOCC2)c(=O)n4C)cn1 [AZD0156] (first compound max 1 µM, 7x7, partner max 1 µM) = -0.0564
• C[C@@H](c1ccc2nccn2c1)n1nnc2ncc(-c3cnn(C)c3)nc21 [Savolitinib] + Cc1c2c(nn1C)CSCc1cc(n(C)n1)CSc1cc(c3ccccc3c1)OCCCc1c(C(=O)O)n(C)c3c-2c(Cl)ccc13 [AZD5991] (first compound max 1 µM, 7x7, partner max 1 µM) = -0.0354
• COc1nnc2ccc(N3CCC(c4ccc(OCCN5CCN(C)C(=O)[C@H]5C)cc4)CC3)nn12 [AZD5153] + CCN(CCO)CCCOc1ccc2c(Nc3cc(CC(=O)Nc4cccc(F)c4)[nH]n3)ncnc2c1 [AZD2811] (first compound max 1 µM, 7x7, partner max 1 µM) = -0.122
• COc1nnc2ccc(N3CCC(c4ccc(OCCN5CCN(C)C(=O)[C@H]5C)cc4)CC3)nn12 [AZD5153] + Cn1cnc2c(F)c(Nc3ccc(Br)cc3Cl)c(C(=O)NOCCO)cc21 [Selumetinib] (first compound max 1 µM, 7x7, partner max 10 µM) = -0.0813
• Cc1nc(Nc2ncc(C(=O)Nc3c(C)cccc3Cl)s2)cc(N2CCN(CCO)CC2)n1 [Dasatinib] + CC(=O)Nc1cccc(-n2c(=O)n(C3CC3)c(=O)c3c(Nc4ccc(I)cc4F)n(C)c(=O)c(C)c32)c1 [Trametinib] (first compound max 2 µM, 7x7, partner max 1 µM) = 0.0228
• CCN(CCO)CCCOc1ccc2c(Nc3cc(CC(=O)Nc4cccc(F)c4)[nH]n3)ncnc2c1 [AZD2811] + C=CCn1c(=O)c2cnc(Nc3ccc(N4CCN(C)CC4)cc3)nc2n1-c1cccc(C(C)(C)O)n1 [AZD1775] (first compound max 1 µM, partner max 1 µM) = 0.0303
